Origin of the recorded values: ChEMBL document CHEMBL3085624

Protocol Text: Metabolic stability in mouse serum assessed as compound remaining at 0.1 mM after 1 hr by HPLC analysis
Format: ADME
Experimental Setup: read-out: Stability
Non-standard residues stand in square brackets, D forms with d. Residues, ends and D or L forms follow the SMILES beside them. Arg(Me) = CNC(=N)NCCC[C@H](N)C(=O)O; d4Pal = N[C@H](Cc1ccncc1)C(=O)O; azaGly = NNC(=O)O
What remaining at 1 h, 100 µM was measured for each of the following?
Answers are plain numbers, in %.

Known results for molecules:
Molecule	remaining at 1 h, 100 µM, %
CNC(=N)NCCC[C@H](NC(=O)[C@H](CC(C)C)NC(=O)NNC(=O)[C@H](Cc1ccccc1)NC(=O)[C@H](CO)NC(=O)[C@H](CC(N)=O)NC(=O)[C@H](Cc1c[nH]c2ccccc12)NC(=O)[C@H](N)Cc1ccc(O)cc1)C(=O)N[C@@H](Cc1ccccc1)C(N)=O (H-[dY]WNSF[azaGly]L[Arg(Me)]F-NH2)	43.4
CNC(N)=NCCC[C@H](NC(=O)[C@H](CC(C)C)NC(=O)NNC(=O)[C@H](Cc1ccccc1)NC(=O)[C@H](CO)NC(=O)[C@H](CC(N)=O)NC(=O)[C@@H](NC(=O)[C@@H](CC(N)=O)NC(=O)[C@H](N)Cc1ccc(O)cc1)[C@@H](C)O)C(=O)N[C@@H](Cc1ccccc1)C(N)=O	65.8
CNC(=N)NCCC[C@H](NC(=O)[C@H](CC(C)C)NC(=O)NNC(=O)[C@H](Cc1ccccc1)NC(=O)[C@H](CO)NC(=O)[C@H](CC(N)=O)NC(=O)[C@@H](Cc1ccncc1)NC(=O)[C@H](N)Cc1ccc(O)cc1)C(=O)N[C@@H](Cc1ccccc1)C(N)=O [KISS1-305] (H-[dY][d4Pal]NSF[azaGly]L[Arg(Me)]F-NH2)	54.9

The measured remaining at 1 h, 100 µM associated with CNC(N)=NCCC[C@H](NC(=O)[C@H](CC(C)C)NC(=O)NNC(=O)[C@H](Cc1ccccc1)NC(=O)[C@H](CO)NC(=O)[C@H](CC(N)=O)NC(=O)[C@H](Cc1ccccc1)NC(=O)[C@@H](CC(N)=O)NC(=O)[C@H](N)Cc1ccc(O)cc1)C(=O)N[C@@H](Cc1ccccc1)C(N)=O (H-[dY][dN]FNSF[azaGly]L[Arg(Me)]F-NH2) reads 24.7

---

Target Entity: KiSS-1 receptor (Homo sapiens, UniProt Q969F8)
Sequence (Q969F8 whole entry): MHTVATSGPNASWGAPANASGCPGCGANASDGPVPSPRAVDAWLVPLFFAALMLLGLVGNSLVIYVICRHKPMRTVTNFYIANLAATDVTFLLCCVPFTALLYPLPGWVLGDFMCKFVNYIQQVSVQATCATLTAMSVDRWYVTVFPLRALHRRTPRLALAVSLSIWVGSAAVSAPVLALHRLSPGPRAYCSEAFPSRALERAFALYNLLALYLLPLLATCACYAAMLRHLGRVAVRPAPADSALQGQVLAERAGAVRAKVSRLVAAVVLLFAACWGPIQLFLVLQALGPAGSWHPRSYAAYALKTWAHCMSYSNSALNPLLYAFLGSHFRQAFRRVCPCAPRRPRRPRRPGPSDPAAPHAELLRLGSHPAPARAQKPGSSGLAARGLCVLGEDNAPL
Protocol Text: Binding affinity to human KISS1R expressed in CHO cell membranes
Non-standard residues stand in square brackets, D forms with d. Residues, ends and D or L forms follow the SMILES beside them. Arg(Me) = CNC(=N)NCCC[C@H](N)C(=O)O; d3Pal = N[C@H](Cc1cccnc1)C(=O)O; Cha = N[C@@H](CC1CCCCC1)C(=O)O; azaGly = NNC(=O)O
API: label(entry) gives condition met if the entry's Ki is strictly smaller than 0.09 nM; on equality or larger values it gives condition not met.

Compound	Discrete Label
CNC(=N)NCCC[C@H](NC(=O)[C@H](CC(C)C)NC(=O)NNC(=O)[C@H](Cc1ccccc1)NC(=O)[C@H](CO)NC(=O)[C@H](CC(N)=O)NC(=O)[C@H](Cc1c[nH]c2ccccc12)NC(=O)[C@H](CC(N)=O)NC(=O)[C@H](N)Cc1cccnc1)C(=O)N[C@@H](Cc1ccccc1)C(N)=O (H-[d3Pal]NWNSF[azaGly]L[Arg(Me)]F-NH2)	condition not met
CNC(N)=NCCC[C@H](NC(=O)[C@H](CC(C)C)NC(=O)NNC(=O)[C@H](Cc1ccccc1)NC(=O)[C@H](CO)NC(=O)[C@H](CC(N)=O)NC(=O)[C@@H](Cc1c[nH]c2ccccc12)NC(=O)[C@H](CC(N)=O)NC(=O)[C@H](N)Cc1ccc(O)cc1)C(=O)N[C@@H](Cc1ccccc1)C(N)=O	condition met
CNC(N)=NCCC[C@H](NC(=O)[C@H](CC(C)C)NC(=O)NNC(=O)[C@H](Cc1ccccc1)NC(=O)[C@H](CO)NC(=O)[C@H](CC(N)=O)NC(=O)[C@H](Cc1ccccc1)NC(=O)[C@H](N)Cc1cccnc1)C(=O)N[C@@H](Cc1ccccc1)C(N)=O	condition not met
CNC(N)=NCCC[C@H](NC(=O)[C@H](CC(C)C)NC(=O)NNC(=O)[C@H](Cc1ccccc1)NC(=O)[C@H](CO)NC(=O)[C@H](CC(N)=O)NC(=O)[C@H](Cc1c[nH]c2ccccc12)NC(=O)[C@@H](CO)NC(=O)[C@H](N)Cc1ccc(O)cc1)C(=O)N[C@@H](Cc1ccccc1)C(N)=O	condition met
CNC(=N)NCCC[C@H](NC(=O)[C@H](CC(C)C)NC(=O)NNC(=O)[C@H](Cc1ccccc1)NC(=O)[C@H](CO)NC(=O)[C@H](CC(N)=O)NC(=O)[C@H](Cc1c[nH]c2ccccc12)NC(=O)[C@@H](CC(N)=O)NC(=O)[C@H](N)Cc1ccc(O)cc1)C(=O)N[C@@H](Cc1ccccc1)C(N)=O	condition met

A record lists CNC(=N)NCCC[C@H](NC(=O)[C@H](CC(C)C)NC(=O)NNC(=O)[C@H](Cc1ccccc1)NC(=O)[C@H](CO)NC(=O)[C@H](CC(N)=O)NC(=O)[C@H](CC1CCCCC1)NC(=O)[C@@H](CC(N)=O)NC(=O)[C@H](N)Cc1ccc(O)cc1)C(=O)N[C@@H](Cc1ccccc1)C(N)=O (H-[dY][dN][Cha]NSF[azaGly]L[Arg(Me)]F-NH2) . Is its Ki below 0.09 nM?
condition met

# strict comparison: is reported Ki < 0.09 nM? input = CNC(=N)NCCC[C@H](NC(=O)[C@H](CC(C)C)NC(=O)NNC(=O)[C@H](Cc1ccccc1)NC(=O)[C@H](CO)NC(=O)[C@H](CC(N)=O)NC(=O)[C@H](CC1CCCCC1)NC(=O)[C@@H](CC(N)=O)NC(=O)[C@H](N)Cc1cccnc1)C(=O)N[C@@H](Cc1ccccc1)C(N)=O (H-[d3Pal][dN][Cha]NSF[azaGly]L[Arg(Me)]F-NH2)
condition not met

Decide: Ki of CNC(=N)NCCC[C@H](NC(=O)[C@H](CC(C)C)NC(=O)NNC(=O)[C@H](Cc1ccccc1)NC(=O)[C@H](CO)NC(=O)[C@H](CC(N)=O)NC(=O)[C@@H](Cc1c[nH]c2ccccc12)NC(=O)[C@H](N)Cc1ccc(O)cc1)C(=O)N[C@@H](Cc1ccccc1)C(N)=O (H-[dY][dW]NSF[azaGly]L[Arg(Me)]F-NH2) strictly below 0.09 nM?
condition met

Below 0.09 nM on Ki? Entry CNC(=N)NCCC[C@H](NC(=O)[C@H](CC(C)C)NC(=O)NNC(=O)[C@H](Cc1ccccc1)NC(=O)[C@H](CO)NC(=O)[C@H](CC(N)=O)NC(=O)[C@H](Cc1c[nH]c2ccccc12)NC(=O)[C@H](N)Cc1ccc(O)cc1)C(=O)N[C@@H](Cc1ccccc1)C(N)=O (H-[dY]WNSF[azaGly]L[Arg(Me)]F-NH2)
condition met

---

Assignment: determine reported fold change (FC) for the given compounds.
Target Entity: KiSS-1 receptor (Homo sapiens, UniProt Q969F8)
Protocol Text: Agonist activity at recombinant human KISS1R expressed in CHO cells assessed as intracellular calcium mobilization incubated for 30 mins at 37 degC and 30 mins at room temperature by Fluo-4 NW staining-based FLIPR assay relative to Metastin (45 to 54)
Assay type: functional, cell-based
Non-standard residues stand in square brackets, D forms with d. Residues, ends and D or L forms follow the SMILES beside them. Arg(Me) = CNC(=N)NCCC[C@H](N)C(=O)O; d3Pal = N[C@H](Cc1cccnc1)C(=O)O; azaGly = NNC(=O)O
Give bare numbers.

Compound	fold change (FC)
CNC(=N)NCCC[C@H](NC(=O)[C@H](CC(C)C)NC(=O)CNC(=O)[C@H](Cc1ccccc1)NC(=O)[C@H](CO)NC(=O)[C@H](CC(N)=O)NC(=O)[C@H](Cc1c[nH]c2ccccc12)NC(=O)[C@H](CC(N)=O)NC(=O)[C@H](N)Cc1ccc(O)cc1)C(=O)N[C@@H](Cc1ccccc1)C(N)=O	0.93
CNC(=N)NCCC[C@H](NC(=O)[C@H](CC(C)C)NC(=O)NNC(=O)[C@H](Cc1ccccc1)NC(=O)[C@H](CO)NC(=O)[C@H](CC(N)=O)NC(=O)[C@@H](NC(=O)[C@H](N)Cc1ccc(O)cc1)[C@@H](C)O)C(=O)N[C@@H](Cc1ccccc1)C(N)=O (H-[dY]TNSF[azaGly]L[Arg(Me)]F-NH2)	8.9
CNC(=N)NCCC[C@H](NC(=O)[C@H](CC(C)C)NC(=O)NNC(=O)[C@H](Cc1ccccc1)NC(=O)[C@H](CO)NC(=O)[C@H](CC(N)=O)NC(=O)[C@H](Cc1ccncc1)NC(=O)[C@@H](CC(N)=O)NC(=O)[C@H](N)Cc1ccc(O)cc1)C(=O)N[C@@H](Cc1ccccc1)C(N)=O	1.7
CNC(=N)NCCC[C@H](NC(=O)[C@H](CC(C)C)NC(=O)NNC(=O)[C@H](Cc1ccccc1)NC(=O)[C@H](CO)NC(=O)[C@H](CC(N)=O)NC(=O)[C@@H](NC(=O)[C@@H](CC(N)=O)NC(=O)[C@H](N)Cc1ccc(O)cc1)[C@@H](C)O)C(=O)N[C@@H](Cc1ccccc1)C(N)=O	7.3

For each of the compounds below, state fold change (FC).
1. CNC(=N)NCCC[C@H](NC(=O)[C@H](CC(C)C)NC(=O)NNC(=O)[C@H](Cc1ccccc1)NC(=O)[C@H](CO)NC(=O)[C@H](CC(N)=O)NC(=O)[C@H](Cc1c[nH]c2ccccc12)NC(=O)[C@@H](Cc1cnc[nH]1)NC(=O)[C@H](N)Cc1ccc(O)cc1)C(=O)N[C@@H](Cc1ccccc1)C(N)=O
2. CNC(=N)NCCC[C@H](NC(=O)[C@H](CC(C)C)NC(=O)NNC(=O)[C@H](Cc1ccccc1)NC(=O)[C@H](CO)NC(=O)[C@H](CC(N)=O)NC(=O)[C@H](Cc1c[nH]c2ccccc12)NC(=O)[C@H](CC(N)=O)NC(=O)[C@H](N)Cc1cccnc1)C(=O)N[C@@H](Cc1ccccc1)C(N)=O (H-[d3Pal]NWNSF[azaGly]L[Arg(Me)]F-NH2)
3. CNC(=N)NCCC[C@H](NC(=O)[C@H](CC(C)C)NC(=O)NNC(=O)[C@H](Cc1ccccc1)NC(=O)[C@H](CO)NC(=O)[C@H](CC(N)=O)NC(=O)[C@H](CO)NC(=O)[C@H](N)Cc1ccc(O)cc1)C(=O)N[C@@H](Cc1ccccc1)C(N)=O (H-[dY]SNSF[azaGly]L[Arg(Me)]F-NH2)
4. CNC(=N)NCCC[C@H](NC(=O)[C@H](CC(C)C)NC(=O)NNC(=O)[C@H](Cc1ccccc1)NC(=O)[C@H](CO)NC(=O)[C@H](CC(N)=O)NC(=O)[C@H](Cc1c[nH]c2ccccc12)NC(=O)[C@H](N)Cc1ccc(O)cc1)C(=O)N[C@@H](Cc1ccccc1)C(N)=O (H-[dY]WNSF[azaGly]L[Arg(Me)]F-NH2)

[6.2, 2.3, 61, 2.4]
